test: Solubility study with different buffer salts at pH 7.4; conditions: phosphate buffer, pH 7.4, aqueous buffer, thermodynamic from solid

- Item smiles: "[O-][n+]1ccc(O)c(O)c1-c1c(O)c(O)cc[n+]1[O-]"
  Unit label: "µg/mL"
  solubility thermodynamic at 24 h: 4560

* * *

experiment: Solubility study with different buffer concentrations at pH 7.4; conditions: phosphate buffer, pH 7.4, aqueous buffer, thermodynamic from solid, Concentration of Orellanine, NaH2PO4—Na2HPO4 pH 7.4 50 mM; pH adjusted to 7.4 after 3 hours, stirred 24 hours at room temperature; final pH 7.33, 150 mOsm
Measurement name: solubility thermodynamic at 24 h (mg/mL)

- Item smiles: "[O-][n+]1ccc(O)c(O)c1-c1c(O)c(O)cc[n+]1[O-]"
  Unit label: "mg/mL"
  Measured result: 4.88
